Test: Plasma protein binding in CD-1 mouse at 1 uM incubated for 5 hrs in HTD dialysis in the presence of verapamil by LC-MS/MS analysis relative to control
Type: ADME, cell-free
Settings: read-out: PPB (converted)
VALUE_KIND: fraction unbound at 5 h, 1 µM
The answer should be written as a number, with no unit following it.

The measured fraction unbound at 5 h, 1 µM associated with Cc1nn(-c2cccnc2)c(C)c1-c1cc(N2CC3CCC(C2)O3)nc2c(-c3ccn[nH]3)cnn12.O=C(O)/C=C/C(=O)O reads 0.361

----------
Target: Cytochrome P450 3A4 (Homo sapiens, UniProt P08684)
Sequence (P08684 whole entry): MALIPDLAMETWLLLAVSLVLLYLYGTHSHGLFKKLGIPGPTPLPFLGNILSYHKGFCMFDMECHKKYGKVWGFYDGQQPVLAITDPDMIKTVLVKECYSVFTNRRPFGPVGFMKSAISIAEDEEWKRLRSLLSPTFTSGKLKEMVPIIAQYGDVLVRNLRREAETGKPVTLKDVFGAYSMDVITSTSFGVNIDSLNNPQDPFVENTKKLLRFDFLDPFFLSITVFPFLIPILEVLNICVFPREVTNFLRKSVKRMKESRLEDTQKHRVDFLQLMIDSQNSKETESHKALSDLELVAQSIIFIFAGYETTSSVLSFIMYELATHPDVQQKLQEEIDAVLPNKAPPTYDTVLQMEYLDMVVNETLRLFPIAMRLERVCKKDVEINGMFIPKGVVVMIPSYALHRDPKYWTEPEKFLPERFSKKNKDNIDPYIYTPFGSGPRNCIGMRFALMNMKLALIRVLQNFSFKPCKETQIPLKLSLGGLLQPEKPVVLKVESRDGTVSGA
Test: Inhibition of CYP3A4 in human liver microsomes using testosterone as substrate and in presence of NADPH incubated for 60 mins by LC-MS/MS analysis
Type: ADME, Microsome
VALUE_KIND: pIC50
Lab note — pIC50 values are minus log10 of concentrations in M.

The measured pIC50 associated with Cc1nn(-c2cccnc2)c(C)c1-c1cc(N2CC3CCC(C2)O3)nc2c(-c3ccn[nH]3)cnn12.O=C(O)/C=C/C(=O)O reads 4.38

----------
Assay: Plasma protein binding in Sprague-Dawley rat at 1 uM incubated for 5 hrs in HTD dialysis in the presence of verapamil by LC-MS/MS analysis relative to control
Type: ADME, cell-free
Settings: read-out: PPB (converted)
VALUE_KIND: fraction unbound at 5 h, 1 µM
The answer should be written as a number, with no unit following it.

The measured fraction unbound at 5 h, 1 µM associated with Cc1nn(-c2cccnc2)c(C)c1-c1cc(N2CC3CCC(C2)O3)nc2c(-c3ccn[nH]3)cnn12.O=C(O)/C=C/C(=O)O reads 0.136

----------
Target: CYP1A2 (Homo sapiens)
Sequence (P05177 whole entry): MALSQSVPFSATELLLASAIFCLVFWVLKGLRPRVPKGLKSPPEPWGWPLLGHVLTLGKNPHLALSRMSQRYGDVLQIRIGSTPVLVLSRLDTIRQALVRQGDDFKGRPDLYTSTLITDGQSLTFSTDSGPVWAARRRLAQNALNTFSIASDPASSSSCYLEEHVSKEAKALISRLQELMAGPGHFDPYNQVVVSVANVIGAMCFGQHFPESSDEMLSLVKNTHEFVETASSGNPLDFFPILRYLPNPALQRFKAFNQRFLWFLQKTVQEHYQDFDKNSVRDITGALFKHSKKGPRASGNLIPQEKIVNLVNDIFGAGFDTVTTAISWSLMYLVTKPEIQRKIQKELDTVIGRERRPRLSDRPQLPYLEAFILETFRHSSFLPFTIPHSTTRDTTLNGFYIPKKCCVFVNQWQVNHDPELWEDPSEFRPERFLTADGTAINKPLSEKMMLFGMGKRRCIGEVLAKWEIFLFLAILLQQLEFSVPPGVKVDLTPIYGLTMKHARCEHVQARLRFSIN
Experiment: Inhibition of recombinant human CYP1A2 assessed as residual activity at 1 uM in the presence of NADPH incubated for 60 mins by LC-MS/MS analysis relative to control
Type: ADME
Details: read-out: Activity
VALUE_KIND: activity at 1 h, 1 µM (%)
Answer format: numeric, % implied, no suffix.

With CYP1A2 (Homo sapiens) as the test system, Cc1nn(-c2cccnc2)c(C)c1-c1cc(N2CC3CCC(C2)O3)nc2c(-c3ccn[nH]3)cnn12.O=C(O)/C=C/C(=O)O showed activity at 1 h, 1 µM of 105

----------
VALUE_KIND: IC50

With Cytochrome P450 2B6 (Homo sapiens, UniProt P20813) as the test system, Cc1nn(-c2cccnc2)c(C)c1-c1cc(N2CC3CCC(C2)O3)nc2c(-c3ccn[nH]3)cnn12.O=C(O)/C=C/C(=O)O showed IC50 of > 100 µM

----------
Experiment: Stability in Beagle dog plasma assessed as half life by LC-MS/MS analysis
Format: ADME, cell-free, Canis lupus familiaris
VALUE_KIND: half-life

The measured half-life associated with Cc1nn(-c2cccnc2)c(C)c1-c1cc(N2CC3CCC(C2)O3)nc2c(-c3ccn[nH]3)cnn12.O=C(O)/C=C/C(=O)O reads > 120 min

----------
Test: Lipophilicity, logP of compound
Assay type: physicochemical
Settings: octanol/water
VALUE_KIND: logP
The answer should be written as a number, with no unit following it.

The measured logP associated with Cc1nn(-c2cccnc2)c(C)c1-c1cc(N2CC3CCC(C2)O3)nc2c(-c3ccn[nH]3)cnn12.O=C(O)/C=C/C(=O)O reads 0.7

----------
Test: Inhibition of DNA-PK (unknown origin) preincubated for 15 mins and measured after 60 mins by Z-LYTE screening
Parameters: species or system Homo sapiens
VALUE_KIND: pIC50
Lab note — pIC50 values are minus log10 of concentrations in M.

The measured pIC50 associated with Cc1nn(-c2cccnc2)c(C)c1-c1cc(N2CC3CCC(C2)O3)nc2c(-c3ccn[nH]3)cnn12.O=C(O)/C=C/C(=O)O reads 6.62

----------
Experiment: Plasma protein binding in Beagle dog at 1 uM incubated for 5 hrs in HTD dialysis in the presence of verapamil by LC-MS/MS analysis relative to control
Format: ADME, cell-free, Canis lupus familiaris
Details: read-out: PPB (converted)
VALUE_KIND: fraction unbound at 5 h, 1 µM
The answer should be written as a number, with no unit following it.

The measured fraction unbound at 5 h, 1 µM associated with Cc1nn(-c2cccnc2)c(C)c1-c1cc(N2CC3CCC(C2)O3)nc2c(-c3ccn[nH]3)cnn12.O=C(O)/C=C/C(=O)O reads 0.256

----------
VALUE_KIND: IC50 (µM)
Answer format: numeric, µM implied, no suffix.

With Serine/threonine-protein kinase ATR (Homo sapiens, UniProt Q13535) as the test system, Cc1cncc(-n2nc(C)c(-c3cc(N4CC5CCC(C4)O5)nc4c(-c5ccn[nH]5)cnn34)c2C)c1 showed IC50 of 0.01

----------
Target: CYP2C19 (Homo sapiens, UniProt P33261)
Sequence (P33261 whole entry): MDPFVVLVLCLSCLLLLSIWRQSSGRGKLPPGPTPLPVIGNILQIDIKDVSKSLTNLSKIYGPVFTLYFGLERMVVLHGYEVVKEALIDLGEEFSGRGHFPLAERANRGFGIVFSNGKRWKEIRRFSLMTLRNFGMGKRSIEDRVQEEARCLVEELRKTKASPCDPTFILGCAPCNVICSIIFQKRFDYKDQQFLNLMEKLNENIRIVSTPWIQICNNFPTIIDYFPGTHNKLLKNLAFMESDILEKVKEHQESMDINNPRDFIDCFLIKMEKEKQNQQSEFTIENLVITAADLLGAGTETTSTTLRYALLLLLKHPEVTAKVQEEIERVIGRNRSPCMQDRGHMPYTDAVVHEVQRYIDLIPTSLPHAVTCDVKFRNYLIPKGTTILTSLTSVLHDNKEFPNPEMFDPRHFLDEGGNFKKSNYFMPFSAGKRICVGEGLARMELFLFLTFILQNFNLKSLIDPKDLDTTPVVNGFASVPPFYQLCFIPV
Assay: Inhibition of recombinant human CYP2C19 assessed as residual activity at 1 uM in the presence of NADPH incubated for 60 mins by LC-MS/MS analysis relative to control
Assay type: ADME
Details: read-out: Activity
VALUE_KIND: activity at 1 h, 1 µM (%)
Answer format: numeric, % implied, no suffix.

The measured activity at 1 h, 1 µM associated with Cc1nn(-c2cccnc2)c(C)c1-c1cc(N2CC3CCC(C2)O3)nc2c(-c3ccn[nH]3)cnn12.O=C(O)/C=C/C(=O)O reads 109

----------
Target: CYP2D6 (Homo sapiens, UniProt P10635)
Sequence (P10635 whole entry): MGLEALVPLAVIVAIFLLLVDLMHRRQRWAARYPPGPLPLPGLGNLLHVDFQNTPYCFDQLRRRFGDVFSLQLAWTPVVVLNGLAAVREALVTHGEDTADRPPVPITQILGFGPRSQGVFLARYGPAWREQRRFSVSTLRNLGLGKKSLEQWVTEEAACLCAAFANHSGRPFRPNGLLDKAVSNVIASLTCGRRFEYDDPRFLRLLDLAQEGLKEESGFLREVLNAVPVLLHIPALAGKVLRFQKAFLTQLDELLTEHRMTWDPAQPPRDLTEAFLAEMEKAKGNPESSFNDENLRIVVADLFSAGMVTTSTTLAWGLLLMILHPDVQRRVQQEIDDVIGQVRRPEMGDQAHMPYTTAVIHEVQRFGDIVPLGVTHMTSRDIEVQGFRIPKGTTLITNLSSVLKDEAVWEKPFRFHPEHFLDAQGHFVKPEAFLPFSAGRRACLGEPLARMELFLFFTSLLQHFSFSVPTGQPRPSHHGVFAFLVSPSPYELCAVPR
Assay: Inhibition of recombinant human CYP2D6 assessed as residual activity at 1 uM in the presence of NADPH incubated for 60 mins by LC-MS/MS analysis relative to control
Assay type: ADME
Details: read-out: Activity
VALUE_KIND: activity at 1 h, 1 µM (%)
Answer format: numeric, % implied, no suffix.

The measured activity at 1 h, 1 µM associated with Cc1nn(-c2cccnc2)c(C)c1-c1cc(N2CC3CCC(C2)O3)nc2c(-c3ccn[nH]3)cnn12.O=C(O)/C=C/C(=O)O reads 101

----------
Assay: Dissociation constant, pKa of compound
Format: physicochemical
VALUE_KIND: pKa

The measured pKa associated with Cc1nn(-c2cccnc2)c(C)c1-c1cc(N2CC3CCC(C2)O3)nc2c(-c3ccn[nH]3)cnn12.O=C(O)/C=C/C(=O)O reads 4.25
